# credit: patent US20200390100A1

# System: Amaranthus retroflexus
# assay remarks: Post-emergence herbicidal action, greenhouse, 320 g/ha
# Format: in vivo
# test parameters: application rate 320 g/ha, rated visually after about 3 weeks vs untreated controls
Amaranthus retroflexus (efficacy in %) listing for selected compounds.
All answers are understood in %, so give the number only.

Examples from the recorded data:
CC(=O)OC1CC2CCCN2C(=O)N1c1cc(C(C)(C)C)on1 (stereo not shown)    90
CC(C)CC(=O)OC1CCN(C)C(=O)N1c1cc(C(C)(C)C)on1 (stereo not shown)    100
CCC(=O)OC1CC2CCCN2C(=O)N1c1cc(C(C)(C)C)on1 (stereo not shown)    100
CC(=O)OC1CC(C)N(C)C(=O)N1c1cc(C(C)(C)C)on1 (single isomer, unassigned)    100
CCC(=O)OC1CCN(C)C(=O)N1c1cc(C(C)(C)C)on1 (stereo not shown)    100
CN1CCC(O)N(c2cc(C(F)(F)F)ncn2)C1=O (stereo not shown)    100
CN1CCC(OC(=O)C(C)(C)C)N(c2cc(C(C)(C)C)on2)C1=O (stereo not shown)    80
CCCC(=O)OC1CCN(C)C(=O)N1c1cc(C(C)(C)C)on1 (stereo not shown)    100
CN1CC(F)(F)C(O)N(c2cc(C(C)(C)C)on2)C1=O (stereo not shown)    90
CN1CCC(O)N(c2cc(C(F)(F)F)c(Br)cn2)C1=O (stereo not shown)    100

Recorded Amaranthus retroflexus (efficacy in %) (compound CC(C)(C)c1cc(N2C(=O)N3CCCC3CC2O)no1 (stereo not shown) ): 100

# Amaranthus retroflexus (efficacy in %) (compound: CC(=O)OC1CCN(C)C(=O)N1c1cc(C(C)(C)C)on1 (stereo not shown) ) is 100

Lookup result for CN1CCC(O)N(c2cc(C(F)(F)F)c(Cl)cn2)C1=O (stereo not shown) ; measured Amaranthus retroflexus (efficacy in %): 100

* * *

# System: Veronica persica
# assay remarks: Pre-emergence herbicidal action, greenhouse, 320 g/ha
# Type: in vivo
# test parameters: application rate 320 g/ha, Table B13
Measured Veronica persica (efficacy in %) of individual entries
The figure you give is taken to be in %; do not add the unit.

Below, 4 compounds whose answers are already recorded.
CCCC(=O)OC1CCN(C)C(=O)N1c1cc(C(C)(C)C)on1 (centres unmarked)    100
CN1CCC(O)N(c2cc(C(F)(F)F)ncn2)C1=O (centres unmarked)    80
CC(=O)OC1CCN(C)C(=O)N1C1=NOC(C)(C)C1 (centres unmarked)    100
CN1CCC(O)N(c2cc(C(F)(F)F)ccn2)C1=O (centres unmarked)    80

Noted for CN1CCC(O)N(c2cc(C(F)(F)F)c(Br)cn2)C1=O (centres unmarked) : its Veronica persica (efficacy in %) reads 100

* * *

# target or test system: photosystem II (PS II) (Spinacia oleracea)
# Construct: the chloroplasts were osmotically ruptured and the thylakoid membranes were then obtained by centrifugation; from tissue; host or cells: fresh spinach leaves; thylakoid membrane preparation from isolated chloroplasts
# assay remarks: Measurement of PS II activity in thylakoid membranes (DCPIP reduction)
# Assay type: biochemical, spinach
# test parameters: PS II activity in spinach thylakoid membranes, Table E1; read-out: Effect
property: inhibition at 100 µM

Worked set:
CC1CC(O)N(c2cc(C(C)(C)C)on2)C(=O)N1C (centres unmarked) [I.41-162]    70 to 90%
CCCC(=O)OC1CCN(C)C(=O)N1c1cc(C(C)(C)C)on1 (centres unmarked) [I.4-162]    50 to 70%
CN1CCC(O)N(c2cc(C(C)(C)C)on2)C1=O (centres unmarked) [I.1-162]    > 90%
CC(=O)OC1CCN(C)C(=O)N1c1cc(C(C)(C)C)on1 (centres unmarked) [I.2-162]    70 to 90%
CN1CCC(O)N(c2cc(C(C)(C)C)no2)C1=O (centres unmarked) [I.1-290]    > 90%
CN1CC(C)(C)C(O)N(c2cc(C(C)(C)C)on2)C1=O (centres unmarked) [I.61-162]    70 to 90%
CCC(=O)OC1CCN(C)C(=O)N1c1cc(C(C)(C)C)on1 (centres unmarked) [I.3-162]    50 to 70%

Next compound, please.
Param item: CN1CCC(O)N(c2cc(C(F)(F)F)ccn2)C1=O (centres unmarked) [I.1-449] ; param system: photosystem II (PS II) (Spinacia oleracea); output inhibition at 100 µM: 50 to 70%
